Below, each entry is listed with its recorded pKi.
Molecular target: Neuropeptide Y receptor type 1 (Homo sapiens, UniProt P25929)
Sequence (P25929 whole entry): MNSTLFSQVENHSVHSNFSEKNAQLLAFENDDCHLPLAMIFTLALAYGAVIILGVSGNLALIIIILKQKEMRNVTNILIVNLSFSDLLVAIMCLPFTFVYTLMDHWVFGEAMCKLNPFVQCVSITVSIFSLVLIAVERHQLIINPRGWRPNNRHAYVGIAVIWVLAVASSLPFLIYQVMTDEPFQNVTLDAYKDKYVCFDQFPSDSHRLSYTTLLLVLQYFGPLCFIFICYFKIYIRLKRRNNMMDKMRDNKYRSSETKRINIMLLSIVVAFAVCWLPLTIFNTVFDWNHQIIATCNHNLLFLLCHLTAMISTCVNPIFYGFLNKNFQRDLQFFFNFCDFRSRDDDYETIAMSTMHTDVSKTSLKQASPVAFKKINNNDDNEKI
Remember, pKi is on a log scale: it is -log10 of the molar concentration.

Some solved cases for reference:
CC(C)(C)NC(=O)Nc1cccc(CN2C(=O)C(NC(=O)Nc3ccccc3)CCc3ccccc32)c1 (stereo unspecified) :: 7.12
CC(C)NC(=O)Nc1cccc(CN2C(=O)C(COC(=O)Nc3ccccc3)CCc3ccccc32)c1 (stereo unspecified) :: 5.39
CC(C)NC(=O)Nc1cccc(CN2C(=O)C(NC(=O)Nc3ccc(O)cc3)CCc3ccccc32)c1 (stereo unspecified) :: 7.09
CC(C)NC(=O)Nc1cccc(CN2C(=O)C(NC(=O)Nc3ccc4[nH]ncc4c3)CCc3ccccc32)c1 (stereo unspecified) :: 7.59
CC(C)NC(=O)Nc1cccc(CN2C(=O)C(NC(=O)Nc3ccc(N)cc3)CCc3ccccc32)c1 (stereo unspecified) :: 6.70
CC(C)NC(=O)Nc1cccc(CN2C(=O)C(OC(=O)Nc3ccccc3)CCc3ccccc32)c1 (stereo unspecified) :: 6.35
CC(C)NC(=O)Nc1cccc(CN2C(=O)C(NC(=O)Nc3nccs3)CCc3ccccc32)c1 (stereo unspecified) :: 6.80
CC(C)NC(=O)Nc1cccc(CN2C(=O)C(NC(=O)Nc3ccc(N(C)C)cc3)CCc3ccccc32)c1 (stereo unspecified) :: 7.18
CC(C)NC(=O)Nc1cccc(CN2C(=O)C(NC(=O)Nc3ccc4sccc4c3)CCc3ccccc32)c1 (stereo unspecified) :: 7.89
CC(C)NC(=O)Nc1cccc(CN2C(=O)C(NC(=O)Oc3ccccc3)CCc3ccccc32)c1 (stereo unspecified) :: 5.68

Request: Observed pKi on Neuropeptide Y receptor type 1 (Homo sapiens, UniProt P25929) for CC(C)NC(=O)Nc1cccc(CN2C(=O)C(NC(=O)Nc3ccncc3)CCc3ccccc32)c1 (stereo unspecified) , please.
Result: 7.08

Request: Observed pKi on Neuropeptide Y receptor type 1 (Homo sapiens, UniProt P25929) for CC(C)NC(=O)Nc1cccc(CN2CCCCC(NC(=O)Nc3ccccc3)C2=O)c1 (stereo unspecified) , please.
Result: 5.15

Request: Observed pKi on Neuropeptide Y receptor type 1 (Homo sapiens, UniProt P25929) for CC(C)NC(=O)Nc1cccc(CN2C(=O)C(NC(=O)Nc3ccccn3)CCc3ccccc32)c1 (stereo unspecified) , please.
Result: 6.62
